- ASSAY TARGET: T1, receptor for epidermic growth factor (EGF-R) on Capan-1 and A431 cells (human (human cell line Capan-1), UniProt P00533 25-1210)
- T1 construct: whole, on cells; both are called EGF receptors; also called EGF receptor; receptor of EGF
- PROCEDURE DETAILS: competition with 125I-EGF on Capan-1 cells, two-site fit (Graphpad Inplot4); high affinity site
Positions of bridges follow the written chain, without caps; N, C: chain ends. No end group written: not given here.
OBSERVED PROPERTY: pIC50
# reply with the number alone; pIC50 is -log10 of concentration in mol/L

Req: What value of pIC50 has been reported for the following binder? EQHADPICNKPCKTHDDCSGAWFCQACWNSARTCGPYVG (other, disulfide 12-27, 18-34, 8-24, Secreted from E. coli MC1061 (pIMAM3, OmpA signal peptide directly before the first codon of native PCI); also called PCI; rPCI) [potato carboxypeptidase inhibitor, isoform IIa, recombinant]
Resp: 10.86

Reference source for all entries: patent US6379959
